The measurements presented in this section are drawn from ChEMBL document CHEMBL4261628.

# Lookup of reported log10 half-life keyed by entry
Assay procedure: Half life in 0.05 M phosphate buffer of pH 7.3 at 25 degC by spectrophotometric analysis
Type: physicochemical
Measured metric: log10 half-life (log10 of the value in h)

INSERT INTO assay_data (compound_structure, measured_metric, endpoint_value) VALUES
  ('CCOC(=O)c1cn(C(=O)c2ccc(C)cc2)c2ncccc12', 'log10 half-life', 0.63),
  ('Cc1cccc(C(=O)n2cc(C(=O)Nc3ccccc3)c3cccnc32)c1', 'log10 half-life', 0.53),
  ('CCOC(=O)c1cn(C(=O)C2CC2)c2ncccc12', 'log10 half-life', 1.16),
  ('Cc1cccc(C(=O)n2cc([N+](=O)[O-])c3cccnc32)c1', 'log10 half-life', -0.40),
  ('CCCCC(=O)n1cc(C#N)c2cccnc21', 'log10 half-life', 0.28),
  ('CCOC(=O)c1cn(C(=O)c2cccc(C)c2)c2ncccc12', 'log10 half-life', 0.54);
